Recorded MIC values for a group of compounds are listed next.
System: Staphylococcus epidermidis
Assay: Antibacterial activity against Staphylococcus epidermidis expressing mecA gene by broth microdilution method
Assay type: functional
result type: MIC (µg/mL)

INSERT INTO assay_data (smiles_text, result_type, unit_annotation, observed_measurement) VALUES
  ('COC(=O)[C@H]1NC(=O)[C@H]2NC(=O)[C@H](NC(=O)[C@@H]3NC(=O)[C@H]4NC(=O)[C@H](NC(=O)[C@H](n5cc6cc7ccccc7cc6c5Sc5ccccc5)c5ccc(O)c(c5)Oc5cc4cc(O)c5C)[C@H](O)c4ccc(cc4)Oc4cc3cc(c4O)Oc3ccc(cc3)[C@H]2O)c2ccc(O)c(c2)-c2c(O)cc(O)cc21', 'MIC', 'µg/mL', 1),
  ('COC(=O)[C@H]1NC(=O)[C@H]2NC(=O)[C@H](NC(=O)[C@@H]3NC(=O)[C@H]4NC(=O)[C@H](NC(=O)[C@H](n5cc6ccccc6c5S[C@@H]5O[C@H](CO)[C@@H](O)[C@H](O)[C@H]5O)c5ccc(O)c(c5)Oc5cc4cc(O)c5C)[C@H](O)c4ccc(cc4)Oc4cc3cc(c4O)Oc3ccc(cc3)[C@H]2O)c2ccc(O)c(c2)-c2c(O)cc(O)cc21', 'MIC', 'µg/mL', 1),
  ('COC(=O)[C@H]1NC(=O)[C@H]2NC(=O)[C@H](NC(=O)[C@@H]3NC(=O)[C@H]4NC(=O)[C@H](NC(=O)[C@H](n5cc6ccccc6c5S[C@@H]5O[C@H](COC(C)=O)[C@@H](OC(C)=O)[C@H](OC(C)=O)[C@H]5OC(C)=O)c5ccc(O)c(c5)Oc5cc4cc(O)c5C)[C@H](O)c4ccc(cc4)Oc4cc3cc(c4O)Oc3ccc(cc3)[C@H]2O)c2ccc(O)c(c2)-c2c(O)cc(O)cc21', 'MIC', 'µg/mL', 4),
  ('COC(=O)[C@H]1NC(=O)[C@H]2NC(=O)[C@H](NC(=O)[C@@H]3NC(=O)[C@H]4NC(=O)[C@H](NC(=O)[C@H](n5cc6cc7ccccc7cc6c5Sc5ncccn5)c5ccc(O)c(c5)Oc5cc4cc(O)c5C)[C@H](O)c4ccc(cc4)Oc4cc3cc(c4O)Oc3ccc(cc3)[C@H]2O)c2ccc(O)c(c2)-c2c(O)cc(O)cc21', 'MIC', 'µg/mL', 2),
  ('COC(=O)[C@H]1NC(=O)[C@H]2NC(=O)[C@H](NC(=O)[C@@H]3NC(=O)[C@H]4NC(=O)[C@H](NC(=O)[C@H](n5cc6ccccc6c5S[C@@H]5O[C@H](COC(C)=O)[C@@H](OC(C)=O)[C@H](OC(C)=O)[C@H]5NC(C)=O)c5ccc(O)c(c5)Oc5cc4cc(O)c5C)[C@H](O)c4ccc(cc4)Oc4cc3cc(c4O)Oc3ccc(cc3)[C@H]2O)c2ccc(O)c(c2)-c2c(O)cc(O)cc21', 'MIC', 'µg/mL', 4),
  ('COC(=O)[C@H]1NC(=O)[C@H]2NC(=O)[C@H](NC(=O)[C@@H]3NC(=O)[C@H]4NC(=O)[C@H](NC(=O)[C@H](n5cc6ccccc6c5Sc5ncccn5)c5ccc(O)c(c5)Oc5cc4cc(O)c5C)[C@H](O)c4ccc(cc4)Oc4cc3cc(c4O)Oc3ccc(cc3)[C@H]2O)c2ccc(O)c(c2)-c2c(O)cc(O)cc21', 'MIC', 'µg/mL', 0.5),
  ('COC(=O)[C@H]1NC(=O)[C@H]2NC(=O)[C@H](NC(=O)[C@@H]3NC(=O)[C@H]4NC(=O)[C@H](NC(=O)[C@H](n5cc6ccccc6c5Sc5nc6ccccc6s5)c5ccc(O)c(c5)Oc5cc4cc(O)c5C)[C@H](O)c4ccc(cc4)Oc4cc3cc(c4O)Oc3ccc(cc3)[C@H]2O)c2ccc(O)c(c2)-c2c(O)cc(O)cc21', 'MIC', 'µg/mL', 1);

These measurements were taken from ChEMBL document CHEMBL2150984.
